Record: AC50 reported on Cytochrome P450 3A4 (Homo sapiens).
Sequence (P08684 whole entry): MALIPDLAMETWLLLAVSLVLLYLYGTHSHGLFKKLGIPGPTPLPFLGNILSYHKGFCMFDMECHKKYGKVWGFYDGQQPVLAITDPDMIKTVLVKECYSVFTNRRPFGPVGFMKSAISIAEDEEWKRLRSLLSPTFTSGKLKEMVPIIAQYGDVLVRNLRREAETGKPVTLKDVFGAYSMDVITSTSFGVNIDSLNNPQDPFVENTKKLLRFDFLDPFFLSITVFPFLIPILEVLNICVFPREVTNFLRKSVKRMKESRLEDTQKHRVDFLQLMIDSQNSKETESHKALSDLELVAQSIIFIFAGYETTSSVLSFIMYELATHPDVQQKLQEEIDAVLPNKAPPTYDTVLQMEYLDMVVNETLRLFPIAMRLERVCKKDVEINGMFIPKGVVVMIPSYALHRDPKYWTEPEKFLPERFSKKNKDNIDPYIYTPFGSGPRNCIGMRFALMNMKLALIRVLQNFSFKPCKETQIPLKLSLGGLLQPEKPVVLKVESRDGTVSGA

[
  {
    "COMPOUND": "COc1ccccc1CN1CC[C@@]2(CCCN(C(=O)Oc3ccccc3)C2)C1",
    "TARGET SYSTEM": "Cytochrome P450 3A4 (Homo sapiens)",
    "AC50": "31.6 µM (inconclusive)"
  },
  {
    "COMPOUND": "CC1(c2ccccc2)NC(=O)N(CC(=O)NCCC2=CCCCC2)C1=O (stereo unspecified)",
    "TARGET SYSTEM": "Cytochrome P450 3A4 (Homo sapiens)",
    "AC50": "20 µM (inconclusive)"
  },
  {
    "COMPOUND": "CCCC(=O)Nc1ccc(C(=O)/C=C/c2ccc(SC)cc2)cc1",
    "TARGET SYSTEM": "Cytochrome P450 3A4 (Homo sapiens)",
    "AC50": "3.16 µM (inconclusive)"
  },
  {
    "COMPOUND": "N#CC(C#N)=C(N)/C(C#N)=C/c1ccc(O)cc1",
    "TARGET SYSTEM": "Cytochrome P450 3A4 (Homo sapiens)",
    "AC50": "39.8 µM (inconclusive)"
  },
  {
    "COMPOUND": "O=C(C1=C(O)C(=O)N(Cc2ccco2)C1c1ccccc1)c1cccs1 (stereo unspecified)",
    "TARGET SYSTEM": "Cytochrome P450 3A4 (Homo sapiens)",
    "AC50": "14.1 µM (inconclusive)"
  },
  {
    "COMPOUND": "Cn1c(SC2CCCCC2=O)nnc1-c1ccncc1 (stereo unspecified)",
    "TARGET SYSTEM": "Cytochrome P450 3A4 (Homo sapiens)",
    "AC50": "25.1 µM (inconclusive)"
  }
]

Values were extracted from ChEMBL document CHEMBL1201862.
